Tested on: IFN-γ and IL-2 mRNA
experiment-summary: Tracheal allograft T-helper 1 cytokine mRNA, real time PCR
Assay type: in vivo, mouse
condition: wild type allograft, compared with vehicle
measurement-label: expression of IFN-γ mRNA

>>> result("Nc1nc2c(cnn2CCc2ccccc2)c2nc(-c3ccco3)nn12")
"did not affect"
>>> result("CNC(=O)[C@H]1O[C@@H](n2cnc3c(NCc4cccc(I)c4)nc(Cl)nc32)[C@H](O)[C@@H]1O")
"did not affect"
>>> result("CCOC(=O)C1=C(C)NC(c2ccccc2)=C(C(=O)OCc2ccccc2)C1C#Cc1ccccc1 (racemic)")
"did not affect"
